Tested on: LOX IMVI melanoma
Assay: NCI-60 one-dose screen, 48 h
Conditions: 10 µM unless noted
This is part of a sample that, as a whole, favours compounds with a hit. Of some 83,000 tested, about 20% had one in any assay. Active and inactive are the calls of the source. How the source made its calls: active means growth percent below 10; inactive means the rest.
Just give me one of these, please: active, inactive

Past entries and their recorded results:
molecule=COc1ccc(/C=C/C(=O)NCCO)cc1 assigned_category=inactive
molecule=O=C1c2cc3c(cc2-c2c1c1ccc(F)cc1c(=O)n2CCCN1CCOCC1)OCO3 assigned_category=active
molecule=Cn1c(=O)c2c(ncn2CCC(=O)Nc2ccc(F)cc2)n(C)c1=O assigned_category=inactive
molecule=COc1cc2ncnc(Nc3ccc(OCc4cccc(F)c4)c(Cl)c3)c2cc1NC(=O)C1CCCC1 assigned_category=inactive

Name the outcome recorded for Fc1ccc(Nc2nnc(-c3ccc(Cl)cc3)o2)cc1 in the assay.
inactive

Which outcome did this test record for the molecule CC/C(=N/NC(N)=O)c1ccccc1 ?
inactive

Per the records of this test, what outcome belongs to COc1ccc(C(=O)c2cc(OC)c(OC)c(OC)c2)cc1/C=C/C(=O)c1cc(OC)c(OC)c(OC)c1 ?
inactive

Outcome logged for Cc1cc(N(CCCNc2ccnc3cc(Cl)ccc23)Cc2ccco2)nc(Cl)n1 in this assay:
inactive

Any idea what this test logged for Cc1ccc(-c2nc3ccc(Cl)cc3c(=O)n2N2C(=O)CSC2c2ccccc2Cl)cc1 (stereo unspecified) ?
inactive

What call does the record list for Cc1ccc(-c2ccc(Nc3ccccc3)nn2)cc1S(N)(=O)=O ?
inactive

Kindly provide the recorded test outcome for the following molecule: O=C1CCCC=CC[C@H]2C=C(Cl)C(=O)C2=CC[C@H](CCCCC(F)(F)F)OC(=O)CCCC=CC[C@H]2C=C(Cl)C(=O)C2=CC[C@H](CCCCC(F)(F)F)OC(=O)CCCC=CC[C@H]2C=C(Cl)C(=O)C2=CC[C@H](CCCCC(F)(F)F)O1
inactive

Assay outcome for Cc1ccc(C)c2c1CCC2C(C)C (stereo unspecified) : what was it?
inactive

====

Tested on: SN12C renal
Assay: NCI-60 one-dose screen, 48 h (100 = growth as untreated, 0 = no growth, -100 = all killed)
Conditions: 10 µM unless noted
The panel holds about 83,000 compounds, 20% with a hit somewhere; the sample as a whole holds those more often.
assay_readout: growth (%)
Respond numerically; units are % and should not be typed.

Answered examples (2):
molecule=COc1ccc(/C=C/C(=O)NCCO)cc1 assay_readout=growth result_value=108
molecule=CC(C)c1cc(C(=O)O)c(O)c(C(C)C)c1.CC(C)c1cc(C(=O)O)c(O)c(C(C)C)c1.[Mn] assay_readout=growth result_value=101

Enter measured growth, system SN12C renal, for the molecule shown: Cn1cc(-c2csc(-c3cn(CCNC(=O)OC(C)(C)C)c4ccc(F)cc34)n2)c2cccnc21
85.9

Quote growth with test system SN12C renal for CCOC(=O)C1OC1(c1ccccc1)c1ccccc1 (centres undefined)
98.7

====

Test system: T-47D breast
Assay: NCI-60 one-dose screen, 48 h
Conditions: 10 µM unless noted
The panel holds about 83,000 compounds, 20% with a hit somewhere; the sample as a whole holds those more often. Calls of active or inactive are those of the source. The calls were made as follows: active = growth percent below 10; inactive = the rest.
Classes to choose from: active, inactive

Previously resolved entries follow.
molecule=CCN1CCN(c2nc(C)cc(N(CCCNc3ccnc4cc(Cl)ccc34)Cc3ccco3)n2)CC1 assigned_category=inactive
molecule=COc1ccc(NC(=O)c2ccoc2COc2ccccc2)cc1 assigned_category=inactive
molecule=C=C(C)[C@@H]1CC[C@]2(C(=O)OC)CC[C@]3(C)[C@H](CC[C@@H]4[C@@](C)(CC/C(N)=N/O)[C@H](C(=C)C)CC[C@]43C)[C@@H]12 assigned_category=inactive

Hello, I am checking results. What call was entered for Cc1[c-]onc1C.Cc1[c-]onc1C.[Ag].[Ag].[NH-]S(=O)(=O)c1ccc(N=Nc2cc(N=Nc3ccc(S([NH-])(=O)=O)cc3)c3c(NC(=O)C(Cl)Cl)cccc3c2OC(=O)C(Cl)Cl)cc1 ?
active

Tell me the recorded outcome of this test for C/C(=N\Nc1ccc2ccccc2n1)c1ccccn1 .
inactive

Which outcome was entered for the molecule C/C(=N\Nc1cc(C)c2ccccc2n1)c1ccccn1 in this test?
inactive

Assay result, entry O=S(=O)(NCCCNc1cc(-c2cn(-c3ccccc3)nc2-c2cccc(O)c2)ccn1)c1ccc(F)cc1 — outcome?
inactive

What did this assay record as the result for COc1cc(/C=N/NC(=S)NNC(=S)NC2CCCCC2)cc(OC)c1OC ?
inactive

Which outcome was assigned to COc1ccc(C2C(C#N)=C(N)Oc3c2sc2c(F)cccc32)cc1 (stereo not given) in this test?
inactive

Name the outcome recorded for COc1ccc(C(=O)/C=C/c2cc(-c3cc(OC)c(OC)c(OC)c3)n[nH]2)cc1OC in the assay.
active

What did the test return for CN(C)CCCCC(C(=O)CBr)(c1ccccc1)c1ccccc1 ?
active

For this molecule, state the assay outcome: C=C(C)[C@@H]1CC[C@]2(CN)CC[C@]3(C)[C@H](CC[C@@H]4[C@@]5(C)CCC(=O)NC(C)(C)[C@@H]5CC[C@]43C)[C@@H]12
inactive

What classification did C/C(=N\NC(=O)C(C)SC(C)C(=O)N/N=C(\C)c1cccnc1)c1cccnc1 (stereo not given) end up with in this test?
inactive

What call does the record list for N#CC1C(=N)Cc2ccccc2-c2ccccc21 (stereo not given) ?
inactive
